- target-or-system: Virion infectivity factor (Human immunodeficiency virus type 1 group M subtype B (isolate BH10)) + Virion infectivity factor (Human immunodeficiency virus type 1 group M subtype B (isolate BRU/LAI)) + Virion infectivity factor (Human immunodeficiency virus type 1 group M subtype B (isolate PCV12)) + Virion infectivity factor (Human immunodeficiency virus type 1 group M subtype B (isolate HXB2)) + DNA dC->dU-editing enzyme APOBEC-3G (Homo sapiens) (UniProt P69720+P69721+P69722+P69723+Q9HC16)
- assay-method-text: HIV-1 Vif–A3G interaction blockers – biochemical, TR-FRET, GST-Vif 1-94, biotin-A3G peptide, dose response retest, primary screen (AID 1117319);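 note: Vif residues 1-94 fused to GST binding biotinylated APOBEC3G peptide 110-148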
- assay-context: TR-FRET GST-Vif / biotin-A3G peptide binding
Inconclusive results are not listed.
Catalogue of IC50 values

In the examples that follow, each entry is paired with its recorded IC50.
# molecule, IC50
rows = [
    ("Cc1c(NC(=O)CN2CCN(c3ccc(O)cc3)CC2)c(=O)n(-c2ccccc2)n1C", "10.2 µM"),
    ("O=C(Cc1ccccc1)NC(Nc1ccccc1)C(Cl)(Cl)Cl (stereo unspecified)", "27.9 µM"),
    ("O=C1NC(=Nc2ccc(O)cc2)S/C1=C\\C=C\\c1ccco1", "5.1 µM"),
    ("C=CC1=C(C(=O)O)N2C(=O)C(NC(=O)Cc3ccccc3)C2SC1 (stereo unspecified)", "11.5 µM"),
    ("CC(C)(Oc1ccc(Cl)cc1)C(=O)NCc1ccco1", "43.1 µM"),
]

Asked: What value of IC50 has been reported for the following molecule? C=CCSc1nnc(NC(=O)CSc2nnc(C)s2)s1
Given back: 90.6 µM

====

Catalogue of pIC50 values
- target-or-system: Virion infectivity factor (Human immunodeficiency virus type 1 group M subtype B (isolate BH10)) + Virion infectivity factor (Human immunodeficiency virus type 1 group M subtype B (isolate BRU/LAI)) + Virion infectivity factor (Human immunodeficiency virus type 1 group M subtype B (isolate PCV12)) + Virion infectivity factor (Human immunodeficiency virus type 1 group M subtype B (isolate HXB2)) + DNA dC->dU-editing enzyme APOBEC-3G (Homo sapiens) (UniProt P69720+P69721+P69722+P69723+Q9HC16)
- assay-method-text: HIV-1 Vif–A3G interaction blockers – biochemical, TR-FRET, GST-Vif 1-94, biotin-A3G peptide, dose response retest, primary screen (AID 1117319);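 note: Vif residues 1-94 fused to GST binding biotinylated APOBEC3G peptide 110-148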
- assay-context: TR-FRET GST-Vif / biotin-A3G peptide binding
Records with an inconclusive call do not appear.
# reply with the number alone; pIC50 is -log10 of concentration in mol/L

Asked: What value of pIC50 has been reported for the following compound? O=C(O)CCCCC1SCC2NC(=O)NC21 (stereo not drawn)
Given back: 6.57

Asked: What value of pIC50 has been reported for the following compound? Cc1cc(F)ccc1S(=O)(=O)Nc1ccccc1C(=O)Nc1ccc2[nH]c(=O)[nH]c2c1
Given back: 4.11

Asked: What value of pIC50 has been reported for the following compound? COc1ccc(-c2cc(C(=O)N/N=C/c3ccc(OC)c(COCC(F)(F)C(F)F)c3)c3ccccc3n2)c(OC)c1
Given back: 4.58

====

- target-or-system: Virion infectivity factor (Human immunodeficiency virus type 1 group M subtype B (isolate BH10)) + Virion infectivity factor (Human immunodeficiency virus type 1 group M subtype B (isolate BRU/LAI)) + Virion infectivity factor (Human immunodeficiency virus type 1 group M subtype B (isolate PCV12)) + Virion infectivity factor (Human immunodeficiency virus type 1 group M subtype B (isolate HXB2)) + DNA dC->dU-editing enzyme APOBEC-3G (Homo sapiens) (UniProt P69720+P69721+P69722+P69723+Q9HC16)
- assay-method-text: HIV-1 Vif–A3G interaction blockers – biochemical, TR-FRET, GST-Vif 1-94, biotin-A3G peptide, dose response retest, primary screen (AID 1117319);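 note: Vif residues 1-94 fused to GST binding biotinylated APOBEC3G peptide 110-148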
- assay-context: TR-FRET GST-Vif / biotin-A3G peptide binding
Results filed as inconclusive are left out.
Catalogue of pIC50 values
# reply with the number alone; pIC50 is -log10 of concentration in mol/L

In the examples that follow, each entry is paired with its recorded pIC50.
# compound, pIC50
records = [
    ("O=C(NCCO)Nc1ccc2nc(-c3ccco3)c(-c3ccco3)nc2c1", 6.62),
    ("c1ccc2c(c1)NCC1CCCN21 (configuration not stated)", 4.42),
    ("O=[N+]([O-])c1ccccc1S(=O)(=O)NC1CCCC1", 4.89),
]

Asked: What value of pIC50 has been reported for the following compound? CN1CCc2c(sc3c2c(NCc2ccco2)nc2nnnn23)C1
Given back: 4.79

Asked: What value of pIC50 has been reported for the following compound? Oc1ccc(N=Cc2ccc(-c3cccs3)s2)cc1
Given back: 6.04

Asked: What value of pIC50 has been reported for the following compound? Cc1ccc(NC(=O)c2ccc(Cl)c(N3C(=O)C=CC3=O)c2)cc1
Given back: 4.09

Asked: What value of pIC50 has been reported for the following compound? Cc1ccc(C(=O)Nc2ccc(O)c(C(=O)O)c2)o1
Given back: 5.41

Asked: What value of pIC50 has been reported for the following compound? Oc1ccc(/C=N/NC2=NCCCCC2)c(O)c1
Given back: 5.31

Asked: What value of pIC50 has been reported for the following compound? COC(=O)c1ccc(=O)c2nc3/c(=C/O)c(O)cc(=O)c3[nH]c12
Given back: 6.46

Asked: What value of pIC50 has been reported for the following compound? O=C(O)c1ccc(-n2cccc2/C=N\NC(=O)c2cc3cc(Br)ccc3o2)cc1
Given back: 5.19

Asked: What value of pIC50 has been reported for the following compound? O=C1/C(=C/C=C/c2ccco2)SC(=S)N1NS(=O)(=O)c1ccccc1
Given back: 5.54

Asked: What value of pIC50 has been reported for the following compound? O=C(O)C1Nc2ccc(Br)cc2C2C=CCC12 (configuration not stated)
Given back: 5.81

Asked: What value of pIC50 has been reported for the following compound? C/C(N)=C(/C#N)C(=O)CSc1nnc(NC(C)C)s1
Given back: 5.01

Asked: What value of pIC50 has been reported for the following compound? CCOC(=O)N1CCN(c2ccc(O)cc2)CC1
Given back: 4.78

Asked: What value of pIC50 has been reported for the following compound? COc1cccc(-c2cn3nc4c(nc3n2)CCCC4)c1
Given back: 4.75

====

Catalogue of IC50 values
- target-or-system: Virion infectivity factor (Human immunodeficiency virus type 1 group M subtype B (isolate BH10)) + Virion infectivity factor (Human immunodeficiency virus type 1 group M subtype B (isolate BRU/LAI)) + Virion infectivity factor (Human immunodeficiency virus type 1 group M subtype B (isolate PCV12)) + Virion infectivity factor (Human immunodeficiency virus type 1 group M subtype B (isolate HXB2)) + DNA dC->dU-editing enzyme APOBEC-3G (Homo sapiens) (UniProt P69720+P69721+P69722+P69723+Q9HC16)
- assay-method-text: HIV-1 Vif–A3G interaction blockers – biochemical, TR-FRET, GST-Vif 1-94, biotin-A3G peptide, dose response retest, primary screen (AID 1117319);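 note: Vif residues 1-94 fused to GST binding biotinylated APOBEC3G peptide 110-148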
- assay-context: TR-FRET GST-Vif / biotin-A3G peptide binding
Results filed as inconclusive are left out.

# molecule, observed-measurement
rows = [
    ("O=C(O)CSc1c2c(nc3cc(C(=O)Nc4cccc(C(F)(F)F)c4)ccc13)CCC2", "13.4 µM"),
]

Asked: What value of IC50 has been reported for the following molecule? O=[N+]([O-])c1cc2no[n+]([O-])c2cc1N1CCCCC1
Given back: 7.67 µM

Asked: What value of IC50 has been reported for the following molecule? CCN(CC)CCN1C(=O)c2ccccc2NC1c1ccc(N(C)C)cc1 (stereo not drawn)
Given back: 90.1 µM

Asked: What value of IC50 has been reported for the following molecule? CCC(C)Cn1c(O)cc2nn(-c3nc4ccccc4s3)c(=O)c-2c1C (stereo not drawn)
Given back: 2.65 µM

Asked: What value of IC50 has been reported for the following molecule? COC(=O)c1ccccc1-c1c2ccc(=N)cc-2oc2cc(N)ccc12
Given back: 13.6 µM

Asked: What value of IC50 has been reported for the following molecule? COc1cc(-c2cccs2)cc(=O)c2c(C)oc(C)c12
Given back: 3.55 µM

Asked: What value of IC50 has been reported for the following molecule? NS(=O)(=O)c1ccc(CCNC(=O)CCS(=O)(=O)c2ccc(Br)cc2)cc1
Given back: 25 µM

Asked: What value of IC50 has been reported for the following molecule? O=C1NC(=O)N(c2ccc(Cl)cc2)C(=O)/C1=C\c1ccc(Sc2nc3ccccc3[nH]2)o1
Given back: 11.7 µM

====

Catalogue of IC50 values
- target-or-system: Virion infectivity factor (Human immunodeficiency virus type 1 group M subtype B (isolate BH10)) + Virion infectivity factor (Human immunodeficiency virus type 1 group M subtype B (isolate BRU/LAI)) + Virion infectivity factor (Human immunodeficiency virus type 1 group M subtype B (isolate PCV12)) + Virion infectivity factor (Human immunodeficiency virus type 1 group M subtype B (isolate HXB2)) + DNA dC->dU-editing enzyme APOBEC-3G (Homo sapiens) (UniProt P69720+P69721+P69722+P69723+Q9HC16)
- assay-method-text: HIV-1 Vif–A3G interaction blockers – biochemical, TR-FRET, GST-Vif 1-94, biotin-A3G peptide, dose response retest, primary screen (AID 1117319);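 note: Vif residues 1-94 fused to GST binding biotinylated APOBEC3G peptide 110-148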
- assay-context: TR-FRET GST-Vif / biotin-A3G peptide binding
Results filed as inconclusive are left out.

In the examples that follow, each entry is paired with its recorded IC50.
# compound, IC50
rows = [
    ("N#CC(C#N)=Cc1cccn1-c1ccc(C(=O)O)cc1", "10.3 µM"),
    ("O=C(NCc1ccccc1Cl)c1csc2c1CCCCC2", "8.35 µM"),
    ("CC1=C(C(=O)Nc2ccccc2F)C(c2ccsc2)C2=C(CC(c3ccccc3)CC2=O)N1 (stereo not drawn)", "1.02 µM"),
    ("Cc1cc(SCC2=NNC(=O)C2)c(Cl)cc1Cl", "63.2 µM"),
    ("CCCCn1c(SCC(=O)NCc2ccco2)nc2ccc(N3CCOCC3)cc2c1=O", "12.5 µM"),
    ("CO[C@H]1C=CO[C@@]2(C)Oc3c(C)c(O)c4c(O)c(c(C=NN5CCN(C)CC5)c(O)c4c3C2=O)NC(=O)C(C)=CC=C[C@H](C)[C@H](O)[C@@H](C)[C@@H](O)[C@@H](C)[C@H](OC(C)=O)[C@@H]1C", "7.75 µM"),
]

Asked: What value of IC50 has been reported for the following compound? Cc1ccc(N2CCN(c3ccc(C)cc3)C2c2ccccn2)cc1
Given back: 75.8 µM

Asked: What value of IC50 has been reported for the following compound? CCOC(=O)c1c2c(n(Cc3ccccc3)c1C)C(=O)C(=O)c1ccccc1-2
Given back: 79.5 µM

Asked: What value of IC50 has been reported for the following compound? Cc1ccc(C(=O)C2=C(O)C(=O)N(c3ncccn3)C2c2ccc(F)cc2)o1 (stereo not drawn)
Given back: 21.8 µM

Asked: What value of IC50 has been reported for the following compound? O=C1NC(=S)S/C1=C\c1ccc(SCc2ccco2)o1
Given back: 0.81 µM
